Reported pKi values are given for each entry in this list.
MEASURED ON: human recombinant GR (Homo sapiens, UniProt P04150)
Construct: purchased PanVera P2812
Sequence (P04150 1-777): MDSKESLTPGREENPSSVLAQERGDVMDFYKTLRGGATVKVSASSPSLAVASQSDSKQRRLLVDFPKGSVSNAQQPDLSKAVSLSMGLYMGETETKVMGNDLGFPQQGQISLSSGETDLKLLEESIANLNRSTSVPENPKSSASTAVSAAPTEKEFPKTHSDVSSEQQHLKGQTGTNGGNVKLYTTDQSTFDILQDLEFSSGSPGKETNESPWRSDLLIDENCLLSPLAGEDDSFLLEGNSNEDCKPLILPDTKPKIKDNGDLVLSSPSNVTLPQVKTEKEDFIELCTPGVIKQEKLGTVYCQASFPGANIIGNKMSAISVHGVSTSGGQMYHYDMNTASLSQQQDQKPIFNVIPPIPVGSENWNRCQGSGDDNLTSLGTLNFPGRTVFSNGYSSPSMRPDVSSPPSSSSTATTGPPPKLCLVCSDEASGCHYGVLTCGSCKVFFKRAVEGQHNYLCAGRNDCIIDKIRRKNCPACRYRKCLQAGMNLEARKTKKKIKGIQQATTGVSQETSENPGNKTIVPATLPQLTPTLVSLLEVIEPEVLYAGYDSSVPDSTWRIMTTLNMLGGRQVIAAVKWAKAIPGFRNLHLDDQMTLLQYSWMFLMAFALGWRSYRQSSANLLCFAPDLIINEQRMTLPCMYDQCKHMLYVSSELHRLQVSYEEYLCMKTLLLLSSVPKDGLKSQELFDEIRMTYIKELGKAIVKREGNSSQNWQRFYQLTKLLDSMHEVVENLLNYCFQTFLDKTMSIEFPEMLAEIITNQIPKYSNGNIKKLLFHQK
ASSAY OVERVIEW: Human glucocorticoid receptor (GR) fluorescence polarisation (FP) binding assay
SETTINGS: human recombinant GR, fluorescence polarisation binding assay; read-out: GR binding
pKi: −log10 of the molar value.

// solved cases for pKi follow
>>> reported("Cc1ccnc(C(=O)[C@]23Cc4cnn(-c5ccc(F)cc5)c4C=C2CCN(S(=O)(=O)c2ccc4c(c2)OCCO4)C3)c1 [Example 11AR]")
"> 9.30"
>>> reported("COc1ccc(S(=O)(=O)N2CCC3=Cc4c(cnn4-c4ccc(F)cc4)C[C@]3(C(=O)c3ccccn3)C2)cc1Cl [Example 11C]")
"> 9.30"
>>> reported("CCCn1cc(S(=O)(=O)N2CCC3=Cc4c(cnn4-c4ccc(F)cc4)C[C@]3(C(=O)c3ccccn3)C2)nn1 [Example 11CP]")
"> 9.30"
>>> reported("COc1c(F)cc(S(=O)(=O)N2CCC3=Cc4c(cnn4-c4ccc(F)cc4)C[C@]3(C(=O)c3ccccn3)C2)cc1F [Example 15D]")
"9.00 to 9.30"

Form field - read-out: pKi; system: human recombinant GR (Homo sapiens, UniProt P04150); submitted item: Cc1cc(S(=O)(=O)N2CCC3=Cc4c(cnn4-c4ccc(F)cc4)C[C@]3(C(=O)c3ncc(C)s3)C2)n(C)n1 [Example 12U]
< 9.00

Form field - read-out: pKi; system: human recombinant GR (Homo sapiens, UniProt P04150); submitted item: O=C(c1ccccn1)[C@]12Cc3cnn(-c4ccc(F)cc4)c3C=C1CCN(S(=O)(=O)c1cncc(N3CCCC3)c1)C2 [Example 10B]
> 9.30

Form field - read-out: pKi; system: human recombinant GR (Homo sapiens, UniProt P04150); submitted item: Cn1ncnc1C(=O)[C@]12Cc3cnn(-c4ccc(F)cc4)c3C=C1CCN(S(=O)(=O)c1ccc(C(F)(F)F)cc1)C2 [Example 5D]
> 9.30

Sourced from patent US12226412B2
